tested on: MALME-3M melanoma; assay: NCI-60 one-dose screen, 48 h; settings: 10 µM unless noted
About 83,000 compounds went through this panel and 20% of them were active in at least one assay; those are over-represented in the sample as a whole. Activity calls are given as the source filed them. Rule for the calls: active = growth percent below 10; inactive = the rest.
Respond using exactly one of the listed classes: YES (active), NO (inactive)

Completed entries (count: 6):
- O=C1NC(c2ccc(Cl)c(Cl)c2)=C/C1=C\c1ccccc1: NO
- CCN(CC)CCCCCNc1cc(OC(=O)c2ccccc2)cc2cccnc12: NO
- CCN(CC)C(=O)CCCCCn1c2ccccc2c2c3c(c4c5ccccc5[nH]c4c21)C(=O)N(O)C3=O: NO
- Nc1c(C(=O)Nc2c(Cl)cccc2Cl)sc2nc3c(cc12)C(=O)CCC3: NO
- O=C1CCCC=CC[C@H]2C=C(Cl)C(=O)C2=CC[C@H](CCCCC(F)(F)F)OC(=O)CCCC=CC[C@H]2C=C(Cl)C(=O)C2=CC[C@H](CCCCC(F)(F)F)OC(=O)CCCC=CC[C@H]2C=C(Cl)C(=O)C2=CC[C@H](CCCCC(F)(F)F)O1: NO
- Nc1nc2c(c(=O)[nH]1)C(c1ccc3c(c1)OCO3)C=C(C(=O)O)N2 (stereo not drawn): NO

Q. What call does the record list for CCCNc1nc(N(C)O)nc(N(C)O)n1 ?
A. NO

Q. What call does the record list for C#CCC(C)(O)/C=C/C1=C(C)CCCC1(C)C (stereo not drawn) ?
A. NO

Q. What call does the record list for N#Cc1cnc2cc(OC[C@@H](O)CO)c(NC(=O)CC3CSSC3)cc2c1Nc1ccc(OCc2cccc(F)c2)c(Cl)c1 ?
A. YES

Q. What call does the record list for C[C@H]1OC(=O)/C=C/[C@@H](O)[C@@H](O)CCCCCCCC[C@@H]1O ?
A. NO

Q. What call does the record list for COc1cnc2c(c1)C(=O)c1c-2n(CCCNC(C)C)c(=O)c2cc([N+](=O)[O-])ccc12 ?
A. YES
